Data origin: the supplement of paper PMC4862054

# Tested on: CAL-120
# measurement_description: drug sensitivity score (DSS), CellTox Green (DSS (AUC-based score)); higher = stronger drug effect (viability inhibition or cytotoxicity); extreme values may be limits of the assay
# run_parameters: incubation time: 72 h
observable: drug sensitivity score
Reply briefly: the number, and no unit.

Query: Give the measured drug sensitivity score of CO[C@@H](C(=O)N1Cc2[nH]nc(NC(=O)c3ccc(N4CCN(C)CC4)cc3)c2C1)c1ccccc1 .
Response: 3.17

Query: Please answer likewise for C[C@]12O[C@H](C[C@]1(O)CO)n1c3ccccc3c3c4c(c5c6ccccc6n2c5c31)CNC4=O
Response: 0

Query: How about this compound: C[C@]12C=CC(=O)C=C1CC[C@@H]1[C@@H]2[C@@H](O)C[C@@]2(C)[C@H]1CC[C@]2(O)C(=O)CO
Response: 0

Query: Repeat with Cc1ccc(Nc2nccc(N(C)c3ccc4c(C)n(C)nc4c3)n2)cc1S(N)(=O)=O
Response: 0
